Assay: Hemoclot thrombin inhibitor (HTI) assay of plasma dabigatran concentration
Assay type: in vivo, human
Settings: human, plasma, oral; healthy subjects, single dose 150 mg, 8 h, HTI-derived concentration
Readout Name: concentration at 8 h

>>> observed_measurement("[H]/N=C(/N)c1ccc(NCc2nc3cc(C(=O)N(CCC(=O)O)c4ccccn4)ccc3n2C)cc1")
"61.9 ng/mL"

---

Experiment: Hemoclot thrombin inhibitor (HTI) assay of plasma dabigatran concentration
Type: in vivo, human
Conditions: human, plasma, oral; NVAF patients, 110 mg bid, pre-dose, HTI-derived concentration
Readout Name: concentration at 0 h (ng/mL)

>>> observed_measurement("[H]/N=C(/N)c1ccc(NCc2nc3cc(C(=O)N(CCC(=O)O)c4ccccn4)ccc3n2C)cc1 [Dabigatran]")
4.06
